# assaySystem: human EHMT2 913-1193 (Homo sapiens, UniProt Q96KQ7)
# Construct: recombinant purified human EHMT2 913-1193, Viva; purchased Viva
# assayDetails: EHMT2 enzyme assay on histone peptide substrate (EHMT2 PEP)
# Type: biochemical
# conditionParameters: recombinant human EHMT2 913-1193, histone H3 1-15 peptide, balanced conditions; read-out: EHMT2 PEP (IC50 μM)
metricName: IC50

In [3]: df
Out[3]:
                                   compound  metricname  recordedresult
0  CNc1ccnc(NC2CCCNC2)n1 (centres unmarked) [Compound 541]        IC50         > 10 µM
1  CNc1cc(C)nc(Nc2ccc(OC)c([C@H]3C[C@@H]3CN(C)C)c2)n1 [Compound 487]        IC50      1 to 10 µM
2  CNc1cc(C)nc(Nc2ccc(OC)c(OC[C@@H]3CN(C)C[C@@H]3O)c2)n1 [Compound 492]        IC50     0.1 to 1 µM

Give IC50 (human EHMT2 913-1193 (Homo sapiens, UniProt Q96KQ7)) of the following compound: CNc1cc(C2CCOCC2)nc(Nc2ccc(OC)c(OCCCN3CCCC3)c2)n1 [Compound 459]
1 to 10 µM

Give IC50 (human EHMT2 913-1193 (Homo sapiens, UniProt Q96KQ7)) of the following compound: CNc1cc(C2CCCC2)nc(Nc2ccc(OC)c(OCCCN3CCCC3)c2)n1 [Compound 458]
0.1 to 1 µM

* * *

# assaySystem: EHMT2 (Homo sapiens)
# Construct: host or cells: MDA-MB-231
# Sequence (Q96KQ7 1-1210): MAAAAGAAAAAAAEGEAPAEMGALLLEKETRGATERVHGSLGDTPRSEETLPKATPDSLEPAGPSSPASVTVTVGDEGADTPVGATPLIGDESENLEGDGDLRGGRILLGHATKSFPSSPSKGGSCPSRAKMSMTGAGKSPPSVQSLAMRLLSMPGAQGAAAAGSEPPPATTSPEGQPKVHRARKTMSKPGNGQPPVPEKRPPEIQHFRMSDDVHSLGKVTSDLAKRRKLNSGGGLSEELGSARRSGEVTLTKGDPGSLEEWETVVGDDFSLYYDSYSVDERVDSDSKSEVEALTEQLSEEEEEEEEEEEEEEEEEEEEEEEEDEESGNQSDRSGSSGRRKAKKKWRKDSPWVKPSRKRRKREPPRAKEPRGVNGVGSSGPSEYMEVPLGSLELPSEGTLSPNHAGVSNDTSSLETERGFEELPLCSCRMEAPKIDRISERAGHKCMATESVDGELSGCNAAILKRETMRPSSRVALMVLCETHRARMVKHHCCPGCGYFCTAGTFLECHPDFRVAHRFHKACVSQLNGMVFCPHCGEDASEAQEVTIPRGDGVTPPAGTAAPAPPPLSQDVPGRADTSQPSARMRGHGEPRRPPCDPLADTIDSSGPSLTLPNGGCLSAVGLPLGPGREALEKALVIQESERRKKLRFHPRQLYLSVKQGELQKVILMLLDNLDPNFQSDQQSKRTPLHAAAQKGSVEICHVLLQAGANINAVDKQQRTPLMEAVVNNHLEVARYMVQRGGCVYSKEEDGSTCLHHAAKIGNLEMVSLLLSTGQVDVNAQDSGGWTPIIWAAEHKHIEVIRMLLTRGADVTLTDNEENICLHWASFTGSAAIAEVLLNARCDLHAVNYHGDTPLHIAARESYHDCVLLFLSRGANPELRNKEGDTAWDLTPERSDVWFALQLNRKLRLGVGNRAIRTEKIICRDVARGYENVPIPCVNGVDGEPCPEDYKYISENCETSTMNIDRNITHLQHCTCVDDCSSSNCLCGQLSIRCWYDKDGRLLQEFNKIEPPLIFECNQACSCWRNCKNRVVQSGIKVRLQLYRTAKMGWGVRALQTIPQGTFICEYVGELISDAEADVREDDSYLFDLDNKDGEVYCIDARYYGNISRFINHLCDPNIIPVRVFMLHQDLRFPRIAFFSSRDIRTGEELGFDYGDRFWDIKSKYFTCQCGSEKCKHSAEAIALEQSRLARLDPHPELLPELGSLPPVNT
# assayDetails: MDA-MB-231 H3K9me2 in-cell Western assay (EHMT2 ICW)
# Type: cell-based
# conditionParameters: Table VI; read-out: EHMT2 ICW IC50
pIC50: −log10 of the molar value.
metricName: pIC50

Worked cases, pIC50 given:
>>> print(df.to_string())
                                   compound  metricname  recordedresult
0  COc1ccc(Nc2nc(C)cc(NC(C)C)n2)cc1OC[C@@H]1CCNC1 [Compound 800]       pIC50    6.00 to 7.00
1  COc1cc2c(C3CCN(C4CCOCC4)CC3)cc(C)nc2cc1OCCCN1CCCC1 [Compound 755]       pIC50    6.00 to 7.00
2  CNCCNCc1cc(Nc2nccc(NC)n2)cnc1OC [Compound 1035]       pIC50    5.00 to 6.00
3  CNc1nc(C2CN(C)C2)c2cc(OC)c(OCCCN3CCCC3)cc2n1 [Compound 753]       pIC50    5.00 to 6.00

# input for lookup
Which value of pIC50 has been reported for COc1cc(Nc2ccc3[nH]ncc3c2)ncc1OCCCN1CCCC1 [Compound 643] in the records?
< 5.00

* * *

# assaySystem: EHMT1 (Homo sapiens)
# Sequence (Q9H9B1 whole entry, species assumed): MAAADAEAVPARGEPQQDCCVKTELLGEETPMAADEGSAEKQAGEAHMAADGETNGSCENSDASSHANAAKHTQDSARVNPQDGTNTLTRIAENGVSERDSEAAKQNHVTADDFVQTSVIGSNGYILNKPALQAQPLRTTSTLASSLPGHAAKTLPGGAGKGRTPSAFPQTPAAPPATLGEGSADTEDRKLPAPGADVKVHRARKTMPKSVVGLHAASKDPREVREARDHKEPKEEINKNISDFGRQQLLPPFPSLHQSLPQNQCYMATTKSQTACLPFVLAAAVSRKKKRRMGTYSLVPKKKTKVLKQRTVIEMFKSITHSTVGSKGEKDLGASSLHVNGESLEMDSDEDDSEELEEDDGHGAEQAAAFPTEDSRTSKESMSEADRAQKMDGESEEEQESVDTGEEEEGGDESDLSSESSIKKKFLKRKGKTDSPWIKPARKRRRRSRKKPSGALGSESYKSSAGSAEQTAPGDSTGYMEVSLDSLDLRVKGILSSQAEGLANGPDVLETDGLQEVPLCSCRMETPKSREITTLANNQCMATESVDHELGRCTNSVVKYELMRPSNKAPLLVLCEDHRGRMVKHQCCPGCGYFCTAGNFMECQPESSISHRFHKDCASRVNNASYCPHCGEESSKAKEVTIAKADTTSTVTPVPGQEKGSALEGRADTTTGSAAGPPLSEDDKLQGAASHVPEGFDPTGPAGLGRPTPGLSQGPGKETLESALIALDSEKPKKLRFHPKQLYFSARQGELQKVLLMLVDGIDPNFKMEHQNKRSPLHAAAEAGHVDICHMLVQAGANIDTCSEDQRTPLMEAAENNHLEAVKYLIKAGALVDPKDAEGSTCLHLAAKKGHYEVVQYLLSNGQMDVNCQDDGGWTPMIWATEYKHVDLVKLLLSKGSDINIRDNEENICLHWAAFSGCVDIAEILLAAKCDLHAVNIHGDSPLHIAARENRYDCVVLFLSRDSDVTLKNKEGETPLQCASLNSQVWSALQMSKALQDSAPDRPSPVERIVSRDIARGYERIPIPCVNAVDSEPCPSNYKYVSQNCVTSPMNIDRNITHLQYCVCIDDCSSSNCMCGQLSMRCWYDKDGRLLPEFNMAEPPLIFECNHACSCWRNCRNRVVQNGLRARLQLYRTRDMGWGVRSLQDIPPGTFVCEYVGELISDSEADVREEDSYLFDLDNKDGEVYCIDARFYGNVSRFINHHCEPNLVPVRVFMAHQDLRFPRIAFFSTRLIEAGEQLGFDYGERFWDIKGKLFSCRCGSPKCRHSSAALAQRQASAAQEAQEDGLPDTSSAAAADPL
# assayDetails: EHMT1 enzyme assay on peptide substrate (EHMT1 PEP)
# Type: biochemical
# conditionParameters: Table VII; read-out: EHMT1 PEP IC50
metricName: IC50

>>> print(df.to_string())
                                   compound  recordedresult
0  CNc1cc(C)nc(Nc2ccc(OC)c(OC[C@H](O)CN3CC(C)C3)c2)n1 [Compound 1099]        < 100 nM
1           CNCCCOc1cc(Nc2nccc(NC)n2)ccc1OC  100 to 1000 nM
2  CNc1cc(C)nc(Nc2ccc(OC)c(CNCCNC3CCC3)c2)n1  100 to 1000 nM
3  CCNc1nc(C)cc(Nc2ccc(NC(=O)Nc3ccc(C)c(C)c3)cc2)n1      > 10000 nM
4  CNc1ccnc(Nc2ccc(OC)c(OCCC(C)NC)c2)n1 (centres unmarked)  100 to 1000 nM

# input for lookup
Give IC50 (EHMT1 (Homo sapiens)) of the following compound: CNCC(C)COc1cc(Nc2nccc(NC)n2)ccc1OC (centres unmarked)
1000 to 10000 nM

* * *

# assaySystem: EHMT2 (Homo sapiens)
# Construct: host or cells: MDA-MB-231
# Sequence (Q96KQ7 1-1210): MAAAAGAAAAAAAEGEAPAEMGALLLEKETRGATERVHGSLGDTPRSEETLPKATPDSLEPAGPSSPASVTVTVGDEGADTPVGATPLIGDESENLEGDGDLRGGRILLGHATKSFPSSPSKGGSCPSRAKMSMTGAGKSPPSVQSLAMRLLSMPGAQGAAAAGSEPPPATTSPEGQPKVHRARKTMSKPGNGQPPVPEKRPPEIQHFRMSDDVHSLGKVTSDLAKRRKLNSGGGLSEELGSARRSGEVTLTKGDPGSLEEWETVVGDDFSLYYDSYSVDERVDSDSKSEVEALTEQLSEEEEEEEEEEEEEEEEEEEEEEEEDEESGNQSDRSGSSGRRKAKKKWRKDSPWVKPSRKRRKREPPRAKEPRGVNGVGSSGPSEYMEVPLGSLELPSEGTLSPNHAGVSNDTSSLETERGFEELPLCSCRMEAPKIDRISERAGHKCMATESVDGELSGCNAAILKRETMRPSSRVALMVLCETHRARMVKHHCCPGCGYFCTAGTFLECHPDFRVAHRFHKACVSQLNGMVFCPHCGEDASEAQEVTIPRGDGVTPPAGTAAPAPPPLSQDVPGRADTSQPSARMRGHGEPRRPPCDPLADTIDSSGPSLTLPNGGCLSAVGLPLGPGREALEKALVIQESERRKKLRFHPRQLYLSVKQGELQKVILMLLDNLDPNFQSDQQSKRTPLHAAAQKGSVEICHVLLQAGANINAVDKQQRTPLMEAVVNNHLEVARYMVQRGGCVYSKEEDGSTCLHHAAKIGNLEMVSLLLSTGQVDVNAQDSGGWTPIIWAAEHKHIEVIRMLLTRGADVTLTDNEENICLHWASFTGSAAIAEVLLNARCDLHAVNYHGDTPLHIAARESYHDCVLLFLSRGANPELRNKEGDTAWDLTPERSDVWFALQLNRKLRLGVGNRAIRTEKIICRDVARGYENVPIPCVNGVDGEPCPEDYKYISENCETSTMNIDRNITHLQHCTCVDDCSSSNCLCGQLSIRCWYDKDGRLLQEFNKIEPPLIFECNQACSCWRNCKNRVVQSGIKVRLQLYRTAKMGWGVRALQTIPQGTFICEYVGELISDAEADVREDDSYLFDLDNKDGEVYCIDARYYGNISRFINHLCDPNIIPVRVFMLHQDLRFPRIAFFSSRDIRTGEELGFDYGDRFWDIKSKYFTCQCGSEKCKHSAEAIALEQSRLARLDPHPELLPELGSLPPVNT
# assayDetails: MDA-MB-231 H3K9me2 in-cell Western assay (EHMT2 ICW)
# Format: cell-based
# conditionParameters: Table III; MDA-MB-231 H3K9me2 in-cell Western; read-out: EHMT2 ICW (IC50 μM)
Some compounds, each annotated with its measured IC50.

In [3]: df
Out[3]:
                                   compound  recordedresult
0  COc1ccc(Nc2cc(C)nc(O)n2)cc1OCCCN1CCCC1 [Compound 448]         > 10 µM
1  CNc1cnnc(Nc2ccc(OC)c(OCCCN3CCCC3)c2)c1 [Compound 370]         > 10 µM
2  COc1ccc(Nc2ncc3ncn(C)c3n2)cc1OCCCN1CCCC1 [Compound 343]         > 10 µM
3  CNc1ccnc(Nc2ccc(OC)c(OC[C@H]3CN(C)C[C@@H]3C)c2)n1 (single isomer, unassigned) [Compound 439]     0.1 to 1 µM
4  CNc1cc(C)nc(Nc2ccc(OC)c(O[C@H]3C[C@H](CN(C)C)C3)c2)n1 [Compound 331]         > 10 µM

Give IC50 (EHMT2 (Homo sapiens)) of the following compound: COc1ccc(Nc2nc(C)c(F)c(NC(C)C)n2)cc1OCCCN1CCCC1 [Compound 337]
1 to 10 µM

Give IC50 (EHMT2 (Homo sapiens)) of the following compound: CNc1cc(C)nc(Nc2ccc(OC)c(OCC3CN(CC4CC4)C3)c2)n1 [Compound 445]
1 to 10 µM

Give IC50 (EHMT2 (Homo sapiens)) of the following compound: CNc1cc(COC)nc(Nc2ccc(OC)c(OCCCN3CCCC3)c2)n1 [Compound 441]
1 to 10 µM
